The entries below are paired with their reported protein stability index.
B1: OAS1 (parent)
chain: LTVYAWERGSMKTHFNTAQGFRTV

variants of: B1; assay: protein stability index of a GFP-peptide fusion (GPS, HEK-293T) (PSI 1-6); higher = more stable; conditions: c terminus: a fixed tail appended;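 further: lentivirally expressed fusions sorted by FACS into six bins by GFP to DsRed ratio, PSI derived from sequencing read proportions per bin multiplied by bin number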

seq string: LTVYAWERGSMKTHFNDAQGFRTV
protein stability index: 2.33
--
seq string: LTVYAWERGSMKTHFNTAQGFNTV
protein stability index: 2.38
--
seq string: LTVYAWFRGSMKTHFNTAQGFRTV
protein stability index: 2.85
--
seq string: LTVYAWERGSMKTHFNTRQGFRTV
protein stability index: 2.84
--
seq string: LTVYAWERGSMKTHFNCAQGFRTV
protein stability index: 1.78
--
seq string: LTVYAWERGSMKPHFNTAQGFRTV
protein stability index: 2.06
--
seq string: LTVYAGERGSMKTHFNTAQGFRTV
protein stability index: 1.73
--
seq string: LTVDAWERGSMKTHFNTAQGFRTV
protein stability index: 2.09
--
seq string: LTVYAWERGSMKTHFNGAQGFRTV
protein stability index: 2.67
--
seq string: LTVYAKERGSMKTHFNTAQGFRTV
protein stability index: 1.53
--
seq string: LNVYAWERGSMKTHFNTAQGFRTV
protein stability index: 1.84
--
seq string: LTVYAWERGSMKTHFNTAQSFRTV
protein stability index: 3.02
--
seq string: QTVYAWERGSMKTHFNTAQGFRTV
protein stability index: 1.79
--
seq string: LTVYAWERGSMKTHFNTAQGFRAV
protein stability index: 1.8
--
seq string: LTVYAWERGIMKTHFNTAQGFRTV
protein stability index: 1.91
--
seq string: LTVYAWERGSMKTHFNTAQKFRTV
protein stability index: 1.61
--
seq string: LTVPAWERGSMKTHFNTAQGFRTV
protein stability index: 2.31
--
seq string: LTVYAWERGSMKTHFNTAQGCRTV
protein stability index: 2.35
--
seq string: LTVYAWERGSMKLHFNTAQGFRTV
protein stability index: 2.99
--
seq string: LTVYAWERGSMKTTFNTAQGFRTV
protein stability index: 2.86
--
seq string: LTVYAWERGSMKTHFNTAQEFRTV
protein stability index: 3.23
--
seq string: LTVYAWERGSMKTHFNTAQGFRTM
protein stability index: 1.96
--
seq string: LTVYAWERGSMKTHENTAQGFRTV
protein stability index: 2.27
--
seq string: LTVYAWVRGSMKTHFNTAQGFRTV
protein stability index: 3.45
--
seq string: LTVYAWERGSMKTHKNTAQGFRTV
protein stability index: 2.01
--
seq string: LTVYAWERGSMKTVFNTAQGFRTV
protein stability index: 3.57
--
seq string: LTVYAWERQSMKTHFNTAQGFRTV
protein stability index: 1.87
--
seq string: LTVYAWERGSMKTHFYTAQGFRTV
protein stability index: 1.95
--
seq string: LTVYAWERGSMKTHFNTAQGFRFV
protein stability index: 2.29
--
seq string: LTVYAWQRGSMKTHFNTAQGFRTV
protein stability index: 3.28
--
seq string: LTVYAWERGSMKTHFNTAQGFRPV
protein stability index: 2.61
--
seq string: LTVYAWERGSMKTHFNTLQGFRTV
protein stability index: 4.32
--
seq string: LTVYAWEAGSMKTHFNTAQGFRTV
protein stability index: 2.38
--
seq string: LTVYAWERGSMKTHFNTAQGFRHV
protein stability index: 3.17
--
seq string: LTVYAWERGSMKTHFNTAQGFDTV
protein stability index: 2.38
--
seq string: LTVYAWERGSMKTHFNTWQGFRTV
protein stability index: 2.73
--
seq string: LTVYAWERGSMKTHFNTAQGFRTP
protein stability index: 2.64
--
seq string: LTVYAWERGSMKTHFNTAQGRRTV
protein stability index: 1.82
--
seq string: LTVYAWERGSMLTHFNTAQGFRTV
protein stability index: 2.72
--
seq string: LTVYAWERGSMKDHFNTAQGFRTV
protein stability index: 2.74
--
seq string: KTVYAWERGSMKTHFNTAQGFRTV
protein stability index: 2.17
--
seq string: LTVYAIERGSMKTHFNTAQGFRTV
protein stability index: 2.41
--
seq string: LTVYAWERGSMKTHFNTAQGHRTV
protein stability index: 1.74
--
seq string: LTVYAWERGGMKTHFNTAQGFRTV
protein stability index: 2.28
--
seq string: LTVHAWERGSMKTHFNTAQGFRTV
protein stability index: 1.66
--
seq string: LTVYAWERGSMKTHFNTAQYFRTV
protein stability index: 3.45
--
seq string: LTVYAWERGSMKTHFDTAQGFRTV
protein stability index: 1.66
--
seq string: LTVYAWERNSMKTHFNTAQGFRTV
protein stability index: 2.48
--
seq string: LTVYAWERGSMKTHFNTAQGPRTV
protein stability index: 2.33
